# Measured On: T1, full length human GLP-1R with N-terminal FLAG tag and C-terminal GFP tag, on CHO cells (human, UniProt P43220 24-463)
# T1 construct: whole, on cells; the cell line itself is tied to UniProt P43220; also called FLAG-GLP-1R-GFP; CHO-GLP-1R
# Experiment Description: flow cytometry, expressing vs parent CHO cells
Observed Property: MFI Ratio
The answer should be a number; do not append a unit.

GLP1R-221-065 (antibody, V domains shown, IgG) VH: QVQLVESGGGVVQPGRSLRLSCAASGFTFNNYAMHWVRQAPGKGLEWVAVISYDRSNEYYADSVKGRFTISRDNSKNTLYLQMNSLRAEDTAVYYCAKHMSMQEGAVTGDGQAAKEFIAWLVKGRVRADLVGDAFDVWGQGTLVTVSS VL: QSVLTQPPSVSAAPGQKVTISCSGTTSNIANNFVSWYQQLPGTAPKLLIYDHNKRPSGIPDRFSGSKSGTSATLGITGLQTGDEADYYCGTWDTSLSAGAFGGGTKLTVL ... 915

Next binder, please.
# input binder: GLP1R-221-033 (antibody, V domains shown, IgG) VH: QVQLVESGGGVVQPGRSLRLSCAASGFSFSNYAMHWVRQAPGKGLEWVAVISHDRSNKYYADSVKGRFTISRDNSKNTLYLQMNSLRAEDTAVYYCAKHMSMQEGAVTGEGQAAKDFIAWLVKGRVRADLVGDAFDVWGQGTLVTVSS VL: QSVLTQPPSVSAAPGQKVTISCSGSSSNIGNEYVSWYQQLPGTAPKLLIYDNNKRVSGIPDRFSGSKSGTSATLGITGLQTGDEADYYCATWDTSLNVGVFGGGTKLTVL ; wanted: its MFI Ratio 1020

Values were extracted from patent US20250340658A1.
